- Species: Rattus norvegicus
- Run description: Open TG-GATES - Regimen: Daily Repeat
- Assay type: toxicity, organism-based, Sprague-Dawley
- Parameters: regimen Daily Repeat, gender Male, age 6 weeks
- Setup conditions: in vivo, po, 1000 mg/kg, […], tissue Blood, route gavage, dose level High, time 28 day
Provide the reported Ht of each item.
Form entry: value (%) — number only.

## Task Recorded Ht of NC(N)=Nc1nc(CSCCC(N)=NS(N)(=O)=O)cs1 , please.
## Result 44.1

## Task Proceed to CCOc1ccc(NC(=O)CC(C)O)cc1 (stereo not drawn)
## Result 42.1

## Task Proceed to CC(C)OC(=O)C(C)(C)Oc1ccc(C(=O)c2ccc(Cl)cc2)cc1 [FENOFIBRATE]
## Result 40.9

====

- Species on record: Rattus norvegicus
- Run description: Open TG-GATES - Regimen: Single
- Type: toxicity, organism-based, Sprague-Dawley
- Design: regimen Single, gender Male, age 6 weeks
- Setup conditions: in vivo, po, 0 mg/kg, 6 h, tissue Blood, route gavage, dose level Control
Property label: Plat (x10_4/uL)
Form entry: value (x10_4/uL) — number only.

## Task Recorded Plat of CCOC(=O)CCC(=O)O[C@H]1[C@H](O[C@@H]2[C@@H](C)[C@H](O[C@H]3C[C@@](C)(OC)[C@@H](O)[C@H](C)O3)[C@@H](C)C(=O)O[C@H](CC)[C@@](C)(O)[C@H](O)[C@@H](C)C(=O)[C@H](C)C[C@@]2(C)O)O[C@H](C)C[C@@H]1N(C)C [ERYTHROMYCIN ETHYLSUCCINATE] , please.
## Result 121

## Task Proceed to CN(C)CCN(Cc1cccs1)c1ccccn1
## Result 119.7

## Task Proceed to CC/C(=C(\c1ccccc1)c1ccc(OCCN(C)C)cc1)c1ccccc1
## Result 118.7

## Task Proceed to CC1=C(/C=C/C(C)=C/C=C/C(C)=C/CO)C(C)(C)CCC1
## Result 114.9

## Task Proceed to CCOc1ccc(NC(=O)CC(C)O)cc1 (configuration not stated)
## Result 117.3

## Task Proceed to C[C@@H]1C[C@H]2[C@@H]3CCC4=CC(=O)C=C[C@]4(C)[C@@]3(F)[C@@H](O)C[C@]2(C)[C@@]1(O)C(=O)CO
## Result 118.9

## Task Proceed to CN1C(=O)CN=C(c2ccccc2)c2cc(Cl)ccc21
## Result 106.4

## Task Proceed to NNC(=O)c1ccncc1
## Result 125.3

## Task Proceed to COC1=CC(=O)C[C@@H](C)[C@]12Oc1c(Cl)c(OC)cc(OC)c1C2=O
## Result 132.8

## Task Proceed to Cc1ccc(C)c(OCCCC(C)(C)C(=O)O)c1
## Result 127

## Task Proceed to COc1cc2c(c(OC)c1OC)-c1ccc(OC)c(=O)cc1[C@@H](NC(C)=O)CC2
## Result 110.7

## Task Proceed to NC(N)=Nc1nc(CSCCC(N)=NS(N)(=O)=O)cs1
## Result 119.6

## Task Proceed to COc1ccc2[nH]c([S+]([O-])Cc3ncc(C)c(OC)c3C)nc2c1 (configuration not stated)
## Result 123.4

## Task Proceed to O=C(CCCN1CCC(O)(c2ccc(Cl)cc2)CC1)c1ccc(F)cc1
## Result 102.2

## Task Proceed to CN(C)CCCN1c2ccccc2CCc2ccccc21
## Result 112.2

## Task Proceed to CN(C)CCCN1c2ccccc2CCc2ccc(Cl)cc21
## Result 125.3

## Task Proceed to CCCNC(=O)NS(=O)(=O)c1ccc(Cl)cc1 [CHLORPROPAMIDE]
## Result 108.8

====

Provide the reported ALP of each item.
- Species on record: Rattus norvegicus
- Run description: Open TG-GATES - Regimen: Daily Repeat
- Assay type: toxicity, organism-based, Sprague-Dawley
- Parameters: regimen Daily Repeat, gender Male, age 6 weeks
- Setup conditions: in vivo, po, 0 mg/kg, 72 h, tissue Plasma, route gavage, dose level Control, time 3 day
Form entry: value (IU/L) — number only.

## Task Recorded ALP of CC1=C(/C=C/C(C)=C/C=C/C(C)=C/CO)C(C)(C)CCC1 , please.
## Result 1642.8

## Task Proceed to O=C(CCCN1CCC(O)(c2ccc(Cl)cc2)CC1)c1ccc(F)cc1
## Result 915.2

## Task Proceed to COc1ccc2[nH]c([S+]([O-])Cc3ncc(C)c(OC)c3C)nc2c1 (stereo unspecified)
## Result 960.2

## Task Proceed to COC1=CC(=O)C[C@@H](C)[C@]12Oc1c(Cl)c(OC)cc(OC)c1C2=O
## Result 917.8

## Task Proceed to CCCNC(=O)NS(=O)(=O)c1ccc(Cl)cc1 [CHLORPROPAMIDE]
## Result 1591.4

## Task Proceed to NC(N)=Nc1nc(CSCCC(N)=NS(N)(=O)=O)cs1
## Result 999.6

## Task Proceed to CN(C)CCN(Cc1cccs1)c1ccccn1
## Result 1533

## Task Proceed to CCOC(=O)CCC(=O)O[C@H]1[C@H](O[C@@H]2[C@@H](C)[C@H](O[C@H]3C[C@@](C)(OC)[C@@H](O)[C@H](C)O3)[C@@H](C)C(=O)O[C@H](CC)[C@@](C)(O)[C@H](O)[C@@H](C)C(=O)[C@H](C)C[C@@]2(C)O)O[C@H](C)C[C@@H]1N(C)C [ERYTHROMYCIN ETHYLSUCCINATE]
## Result 1575.2

## Task Proceed to CCOc1ccc(NC(=O)CC(C)O)cc1 (stereo unspecified)
## Result 1726.4

## Task Proceed to NNC(=O)c1ccncc1
## Result 836.8

## Task Proceed to CN1C(=O)CN=C(c2ccccc2)c2cc(Cl)ccc21
## Result 817.2

====

- Species on record: Rattus norvegicus
- Run description: Open TG-GATES - Regimen: Daily Repeat
- Assay type: toxicity, organism-based, Sprague-Dawley
- Parameters: regimen Daily Repeat, gender Male, age 6 weeks
- Setup conditions: in vivo, po, 0 mg/kg, […], tissue Blood, route gavage, dose level Control, time 28 day
Property label: MCV (fL)
Form entry: value (fL) — number only.

## Task Recorded MCV of CC1=C(/C=C/C(C)=C/C=C/C(C)=C/CO)C(C)(C)CCC1 , please.
## Result 54.8

## Task Proceed to COC1=CC(=O)C[C@@H](C)[C@]12Oc1c(Cl)c(OC)cc(OC)c1C2=O
## Result 58

## Task Proceed to NNC(=O)c1ccncc1
## Result 58.2

## Task Proceed to CN(C)CCCN1c2ccccc2CCc2ccccc21
## Result 57.9

## Task Proceed to NC(N)=Nc1nc(CSCCC(N)=NS(N)(=O)=O)cs1
## Result 56.6

## Task Proceed to CC(C)OC(=O)C(C)(C)Oc1ccc(C(=O)c2ccc(Cl)cc2)cc1 [FENOFIBRATE]
## Result 59.2

## Task Proceed to CCCNC(=O)NS(=O)(=O)c1ccc(Cl)cc1 [CHLORPROPAMIDE]
## Result 57.5

## Task Proceed to CN(C)CCN(Cc1cccs1)c1ccccn1
## Result 56.9

## Task Proceed to CCOc1ccc(NC(=O)CC(C)O)cc1 (configuration not stated)
## Result 56.5

## Task Proceed to COc1ccc2[nH]c([S+]([O-])Cc3ncc(C)c(OC)c3C)nc2c1 (configuration not stated)
## Result 55.9

## Task Proceed to CN1C(=O)CN=C(c2ccccc2)c2cc(Cl)ccc21
## Result 57

## Task Proceed to CCOC(=O)CCC(=O)O[C@H]1[C@H](O[C@@H]2[C@@H](C)[C@H](O[C@H]3C[C@@](C)(OC)[C@@H](O)[C@H](C)O3)[C@@H](C)C(=O)O[C@H](CC)[C@@](C)(O)[C@H](O)[C@@H](C)C(=O)[C@H](C)C[C@@]2(C)O)O[C@H](C)C[C@@H]1N(C)C [ERYTHROMYCIN ETHYLSUCCINATE]
## Result 56.2

====

- Species on record: Rattus norvegicus
- Run description: Open TG-GATES - Regimen: Daily Repeat
- Assay type: toxicity, organism-based, Sprague-Dawley
- Design: regimen Daily Repeat, gender Male, age 6 weeks
- Setup conditions: in vivo, po, 0 mg/kg, […], tissue Blood, route gavage, dose level Control, time 28 day
Provide the reported Neu of each item.
Form entry: value (%) — number only.

## Task Recorded Neu of COC1=CC(=O)C[C@@H](C)[C@]12Oc1c(Cl)c(OC)cc(OC)c1C2=O [GRISEOFULVIN] , please.
## Result 14

## Task Proceed to NC(N)=Nc1nc(CSCCC(N)=NS(N)(=O)=O)cs1 [FAMOTIDINE]
## Result 14.6

## Task Proceed to CC1=C(/C=C/C(C)=C/C=C/C(C)=C/CO)C(C)(C)CCC1 [RETINOL]
## Result 12.6

## Task Proceed to CN(C)CCN(Cc1cccs1)c1ccccn1
## Result 17.4

## Task Proceed to O=C(CCCN1CCC(O)(c2ccc(Cl)cc2)CC1)c1ccc(F)cc1 [HALOPERIDOL]
## Result 12.6
